// values below are reported median fluorescence
- test_target: T1, FZD8 cysteine-rich domain (CRD), MYC-tagged and GPI-anchored on CHO cells (human, UniProt Q498S8 31-155 (rat entry), GPI anchor)
- T1 construct: also called FZD8 CRD; CHO-myc-FZDGPI; not shown: MYC tag and GPI anchor signal
- T1 sequence: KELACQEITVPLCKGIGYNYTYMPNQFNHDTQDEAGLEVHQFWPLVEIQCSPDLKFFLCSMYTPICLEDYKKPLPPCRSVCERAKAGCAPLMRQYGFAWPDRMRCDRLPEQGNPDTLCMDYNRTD
- experimental_details: flow cytometry, CHO-CRD cells;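 also: flow cytometry of Fab binding to CHO cells overexpressing a Frizzled CRD, with binding defined as median fluorescence over twice that of CHO cells lacking any Frizzled CRD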
Form rule: numeric answer, no unit written next to it.

INSERT INTO measurements (binder, value_reported) VALUES
  ('Fab-2908 (Fab, V domains shown, Fab; also called Fv-2908) VH: EVQLVESGGGLVQPGGSLRLSCAASGFNFSSSSIHWVRQAPGKGLEWVAYIYPSYSYTYYADSVKGRFTISADTSKNTAYLQMNSLRAEDTAVYYCARAYYGHFHAMDYWGQGTLVTVSS VL: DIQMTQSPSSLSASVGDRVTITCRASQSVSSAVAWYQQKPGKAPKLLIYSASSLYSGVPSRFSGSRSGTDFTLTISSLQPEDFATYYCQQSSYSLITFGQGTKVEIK', 5.52);

I am curious: what median fluorescence value has been reported for Fab-2910 (Fab, V domains shown, Fab) VH: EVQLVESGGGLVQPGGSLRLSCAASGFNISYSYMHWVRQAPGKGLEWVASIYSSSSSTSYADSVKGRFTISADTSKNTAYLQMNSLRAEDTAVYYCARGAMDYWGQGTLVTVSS VL: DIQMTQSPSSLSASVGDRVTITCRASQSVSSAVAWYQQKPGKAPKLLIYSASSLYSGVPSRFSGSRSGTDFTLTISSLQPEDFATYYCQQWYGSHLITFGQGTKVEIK ?
7.91

I am curious: what median fluorescence value has been reported for Fab-2930 (Fab, V domains shown, Fab; also called Fv-2930) VH: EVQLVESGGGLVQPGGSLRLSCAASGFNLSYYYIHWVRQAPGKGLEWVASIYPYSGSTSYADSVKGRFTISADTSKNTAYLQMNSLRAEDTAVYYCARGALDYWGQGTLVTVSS VL: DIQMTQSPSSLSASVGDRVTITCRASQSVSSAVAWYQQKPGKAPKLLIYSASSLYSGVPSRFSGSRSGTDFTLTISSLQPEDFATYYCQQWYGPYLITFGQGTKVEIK ?
13.8
